settings: pH 10.5
Threshold check on logD: at or above 5 gives yes, strictly below gives no.

{"CPD SMILES": "Cc1cc(C)n(CCOC(=O)[C@H]2[C@H](C=C(Cl)Cl)C2(C)C)n1", "CLASS": "no"}

Has `C=CCn1c(SCC(=O)N2C[C@@]3(C)C[C@@H]2CC(C)(C)C3)nc2sc(CC)cc2c1=O` a recorded logD greater than or equal to 5? yes

Has `O=C(c1ccccc1)N1CCCC[C@@H](Sc2nnc3ccccn23)C1=O` a recorded logD greater than or equal to 5? no

Has `CC[C@@H]1CCCCN1C(=O)CSc1nc(C)cc(C)n1` a recorded logD greater than or equal to 5? no

Has `COc1cc([C@@H]2C(C#N)=C(N)Oc3[nH]nc(C)c32)ccc1OCc1cccc(F)c1` a recorded logD greater than or equal to 5? no

Has `CCc1cc2c3c(c1)[C@]1(C(=O)N3C(C)(C)C=C2C)C(C#N)=C(N)OC2=C1C(=O)CC(C)(C)C2` a recorded logD greater than or equal to 5? yes

Has `Nc1nc(O/N=C/c2ccc([N+](=O)[O-])cc2)nc(N2CCOCC2)n1` a recorded logD greater than or equal to 5? no

====

experiment: method code SF, from DOI: 10.1016/j.ejps.2012.10.019, PMID: 23131797; details: pH 5.0
Measured logD determines class: low = under 4, medium = from 4 up to 5, high = 5 and over

{"COMPOUND": "O=C(Nc1ccc(OC(F)F)cc1)c1ccc(COc2ccc(I)cc2)o1", "CLASS": "high"}

Category of `COc1ccc(C(=O)Nc2cccc(F)c2)cc1S(=O)(=O)N1CCOCC1` , please. low

Category of `CCc1nc2sc(C#N)c(N)n2c(=O)c1C#N` , please. low

Category of `CCn1ccc(CN(C)C(=O)c2ccccc2COc2ccc(F)cc2F)n1` , please. medium

Category of `O=C(COC(=O)c1ccccc1F)Nc1ccccc1` , please. low

Category of `Cc1ccc(N(CCOC(=O)c2ccc(S(=O)(=O)N3CCCCC3)cc2)C2=NS(=O)(=O)c3ccccc32)cc1` , please. high

====

settings: pH 5.0
Binary label based on logD with cut-off 4: below gives Yes, not below gives No.

Sample answers from the record:
{"COMPOUND": "COc1ccc([C@H]2C(C#N)=C(N)N(c3ccc(Cl)cc3)C3=C2C(=O)CC(C)(C)C3)cc1OC", "CLASS": "No"}
{"COMPOUND": "CCN(C(=O)COC(=O)/C(=C/c1ccc(Cl)cc1)c1ccc(F)cc1)[C@@H]1CCS(=O)(=O)C1", "CLASS": "No"}
{"COMPOUND": "O=C1[C@H]2OC[C@H](O2)[C@H]2[C@@H]1[C@@H]1C=C[C@H]2C1", "CLASS": "Yes"}
{"COMPOUND": "O=C(Nc1cccc(Cl)c1)c1cc2n(n1)[C@H](C(F)(F)F)C[C@@H](c1ccccc1)N2", "CLASS": "No"}
{"COMPOUND": "CC[C@H](C(=O)N1CCCN(C(=O)[C@@H](CC)c2ccccc2)CC1)c1ccccc1", "CLASS": "No"}

Shifting focus to the compound that follows.
Just wondering, is logD of COC(=O)[C@H]1OC(c2ccccc2)O[C@H]1C(=O)OC (some centres not stated) below 4? Yes
